These data points were gathered from patent US9796696B2.

For reference, log10 Ki measured on EP2 (Homo sapiens, UniProt P43116):
The figures below represent log10 of Ki, where Ki is stated in nM.

**Q:** Answer briefly: log10 Ki recorded on EP2 (Homo sapiens, UniProt P43116) for CCCCCC(O)c1ccc(C2=C(Br)CC[C@@H]2CCCc2ccc(C(=O)O)s2)cc1 (stereo partly drawn) [drawing 79]
Sequence (P43116 whole entry): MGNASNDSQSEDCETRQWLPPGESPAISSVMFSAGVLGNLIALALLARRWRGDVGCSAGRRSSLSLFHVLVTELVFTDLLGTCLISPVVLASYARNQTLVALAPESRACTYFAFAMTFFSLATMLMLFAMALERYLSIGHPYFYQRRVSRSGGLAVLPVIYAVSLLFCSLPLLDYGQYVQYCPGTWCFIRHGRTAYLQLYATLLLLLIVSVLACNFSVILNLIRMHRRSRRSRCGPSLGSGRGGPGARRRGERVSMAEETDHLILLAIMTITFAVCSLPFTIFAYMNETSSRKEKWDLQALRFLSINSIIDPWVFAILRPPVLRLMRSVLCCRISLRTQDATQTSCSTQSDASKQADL
**A:** 0.18

**Q:** Supply log10 Ki measured with EP2 (Homo sapiens, UniProt P43116) for CCCCCC(O)c1ccc(C2=C(O)C(=O)C[C@@H]2C/C=C\CCCC(=O)O)cc1 (stereo partly drawn) [drawing 82] .
**A:** 2.50

**Q:** Please respond with reported log10 Ki (system EP2 (Homo sapiens, UniProt P43116)) for CCCCCC(O)c1ccc(C2=C(C#N)CC[C@@H]2CCCc2ccc(C(=O)O)s2)cc1 (single isomer, unassigned) [drawing 85] .
**A:** 0.48

**Q:** Write down measured log10 Ki (EP2 (Homo sapiens, UniProt P43116)) for this compound. CCCCC[C@H](O)c1ccc(C2=CCC[C@@H]2CCCc2ccc(C(=O)O)s2)cc1 [drawing 86]
**A:** 1.26

**Q:** Specify the recorded log10 Ki for `CCCCC[C@H](O)c1ccc(C2=C(Cl)CC[C@@H]2CCCc2ccc(C(=O)O)s2)cc1` , system: EP2 (Homo sapiens, UniProt P43116).
**A:** 1.20

**Q:** Provide log10 Ki, recorded with EP2 (Homo sapiens, UniProt P43116), of `CCCCC[C@@H](O)c1ccc(C2=C(Cl)CC[C@@H]2CCCc2ccc(C(=O)O)s2)cc1`
**A:** 0.70

---

molecular target: UniProtKB P43116; assay: EP2 Ca2+ EC50 (in vitro testing); format: cell-based
observation_type: pEC50
pEC50 is a log-scale quantity: -log10 of the concentration expressed in molar.

**Q:** Fill in pEC50 for record CCCCCC(O)c1ccc(C2=C(C#N)CC[C@@H]2CCCc2ccc(C(=O)O)s2)cc1 (single isomer, unassigned) [drawing 84]
**A:** 7.13

**Q:** Please give the documented pEC50 of CCCCCC(O)c1ccc(C2=CCC[C@@H]2CCCc2ccc(C(=O)O)s2)cc1 (stereo partly shown)
**A:** 7.72

**Q:** Determine its reported pEC50: CCCCCC(O)c1ccc(C2=C(F)CC[C@@H]2CCCc2ccc(C(=O)O)s2)cc1 (stereo partly shown)
**A:** 7.57

**Q:** Return value of pEC50 for input CCCCC[C@H](O)c1ccc(C2=CCC[C@@H]2CCCc2ccc(C(=O)O)s2)cc1 [drawing 86] , no commentary.
**A:** 7.57
